Listing of entries alongside the reported Emax.
Biological target: ΔF508-CFTR (Homo sapiens, UniProt P13569, DEL508-508)
Construct: expressed in transfected cells
Sequence (P13569 with tags, fused parts or gaps DEL508-508): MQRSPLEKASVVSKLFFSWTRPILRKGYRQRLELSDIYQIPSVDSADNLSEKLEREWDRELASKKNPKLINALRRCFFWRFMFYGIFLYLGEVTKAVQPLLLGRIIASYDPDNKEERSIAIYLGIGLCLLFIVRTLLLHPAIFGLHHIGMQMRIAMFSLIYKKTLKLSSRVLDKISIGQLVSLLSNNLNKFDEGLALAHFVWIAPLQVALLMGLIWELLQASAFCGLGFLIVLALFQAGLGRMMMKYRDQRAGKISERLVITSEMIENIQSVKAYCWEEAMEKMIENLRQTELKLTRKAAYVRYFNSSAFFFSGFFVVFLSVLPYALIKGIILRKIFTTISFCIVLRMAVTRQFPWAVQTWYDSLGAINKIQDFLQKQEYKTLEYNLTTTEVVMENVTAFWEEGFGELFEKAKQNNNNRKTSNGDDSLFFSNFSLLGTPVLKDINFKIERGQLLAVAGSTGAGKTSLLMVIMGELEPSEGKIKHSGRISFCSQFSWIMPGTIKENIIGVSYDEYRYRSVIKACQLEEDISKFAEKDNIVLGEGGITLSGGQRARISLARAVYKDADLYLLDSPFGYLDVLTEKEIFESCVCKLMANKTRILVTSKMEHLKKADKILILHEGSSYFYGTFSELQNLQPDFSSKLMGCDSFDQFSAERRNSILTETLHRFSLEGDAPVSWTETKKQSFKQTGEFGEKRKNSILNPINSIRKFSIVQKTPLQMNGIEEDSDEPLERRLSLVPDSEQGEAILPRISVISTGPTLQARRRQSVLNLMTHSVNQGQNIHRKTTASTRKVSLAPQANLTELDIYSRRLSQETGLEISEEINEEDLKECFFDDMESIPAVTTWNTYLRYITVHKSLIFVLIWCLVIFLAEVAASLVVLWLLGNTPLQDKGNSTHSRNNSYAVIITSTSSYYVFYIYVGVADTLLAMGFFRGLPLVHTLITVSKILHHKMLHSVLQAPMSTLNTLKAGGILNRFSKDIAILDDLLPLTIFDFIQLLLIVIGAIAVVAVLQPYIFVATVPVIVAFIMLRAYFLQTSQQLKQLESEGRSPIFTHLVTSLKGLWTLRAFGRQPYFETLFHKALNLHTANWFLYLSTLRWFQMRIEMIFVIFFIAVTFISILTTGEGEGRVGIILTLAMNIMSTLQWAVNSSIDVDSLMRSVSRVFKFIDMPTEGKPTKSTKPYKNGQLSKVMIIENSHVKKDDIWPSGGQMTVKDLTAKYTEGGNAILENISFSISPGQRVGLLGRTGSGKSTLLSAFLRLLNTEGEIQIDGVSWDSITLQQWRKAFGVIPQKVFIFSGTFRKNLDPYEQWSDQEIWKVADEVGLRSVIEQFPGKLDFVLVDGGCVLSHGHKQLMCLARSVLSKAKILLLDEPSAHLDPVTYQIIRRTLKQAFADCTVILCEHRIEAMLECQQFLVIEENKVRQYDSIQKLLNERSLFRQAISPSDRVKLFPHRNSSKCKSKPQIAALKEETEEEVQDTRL
Assay: Membrane potential optical assay (FRET/VIPR), identification of correction compounds
Assay type: cell-based
Conditions: relative efficacy
RECORDED_ENDPOINT: Emax

> print(dat)
                                   molecule  observed.measurement
1  COc1ccc2nc(C(C)N3CCN(S(=O)(=O)c4ccccc4)CC3)n(C)c(=O)c2c1 (centres unmarked) [compound 133]            25 to 100%
2  Cc1ccc(C(=O)N2CCN(C(C)c3nc4ccccc4c(=O)n3C)CC2)cc1 (centres unmarked) [compound 74]                 < 25%
3  CC(C)Oc1nc(C(C)N2CCN(S(=O)(=O)c3ccc(Br)cc3)CC2)nc2ccccc12 (centres unmarked) [compound 217]                > 100%
4  CC(c1nc2ccccc2c(=O)n1C)N(C)CCNS(=O)(=O)c1ccc(Cl)cc1 (centres unmarked) [compound 238]                 < 25%
5  COc1ccc(S(=O)(=O)N2CCN(C(C)c3nc4ccc(NC(C)=O)cc4c(=O)n3C)CC2)cc1 (centres unmarked) [compound 155]            25 to 100%
6  CC(c1nc2ccccc2c(=O)n1C)N1CCN(S(=O)(=O)c2ccc(C(C)(C)C)cc2)CC1 (centres unmarked) [compound 13]                 < 25%
7  CC(c1nc2ccccc2c(=O)n1C)N(CCNS(=O)(=O)c1ccc(Cl)cc1)S(=O)(=O)c1ccc(Cl)cc1 (centres unmarked) [compound 198]                 < 25%
8  CC(c1nc2ccc(Cl)cc2c(=O)n1C)N1CCN(S(=O)(=O)c2ccccc2)CC1 (centres unmarked) [compound 71]            25 to 100%

* * *

Biological target: ΔF508-CFTR (Homo sapiens, UniProt P13569, DEL508-508)
Experiment: Membrane potential optical assay (FRET/VIPR), identification of correction compounds
pEC50: −log10 of the molar value.
Listing of entries alongside the reported pEC50.
RECORDED_ENDPOINT: pEC50

> print(dat)
                                   compound  recorded.endpoint  observed.measurement
1  COc1ccc(S(=O)(=O)N2CCN(C(C)c3nc(N4CCC5CCCCC5C4)c4ccccc4n3)CC2)cc1 (centres unmarked)              pEC50                > 5.00
2  CCSc1ccc(S(=O)(=O)N2CCN(C(C)c3nc4ccccc4c(=O)n3C)CC2)cc1 (centres unmarked)              pEC50          4.22 to 4.60
3  COc1ccc(S(=O)(=O)N2CCC(C(C)c3nc(OC4CCCC4)c4ccccc4n3)CC2)cc1 (centres unmarked)              pEC50                > 5.00
4  COc1ccc(S(=O)(=O)N2CCN(C(C)c3nc(OC4CCCCC4)c4nccnc4n3)CC2)cc1 (centres unmarked)              pEC50          4.60 to 5.00
5  CC(NC1CCN(S(=O)(=O)c2ccc(Br)cc2)C1)c1nc2ccccc2c(=O)n1C (centres unmarked)              pEC50          4.22 to 4.60
6  CC(c1nc(N(C)C)c2ccccc2n1)N1CCN(S(=O)(=O)c2ccc(Cl)cc2)CC1 (centres unmarked)              pEC50          4.22 to 4.60
7  COc1ccc2nc(C(C)N3CCN(S(=O)(=O)c4ccccc4)CC3)n(C)c(=O)c2c1 (centres unmarked)              pEC50          4.60 to 5.00
8  COC(=O)c1sccc1S(=O)(=O)N1CCN(C(C)c2nc3ccccc3c(=O)n2C)CC1 (centres unmarked)              pEC50          4.22 to 4.60
